# TEST_PROTOCOL: recombinant barcode read abundance after kanamycin selection (control-corrected) (log10(CPM+1)); higher = more efficient recombination; sequences stand for … in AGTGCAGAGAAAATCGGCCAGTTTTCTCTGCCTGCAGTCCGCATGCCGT…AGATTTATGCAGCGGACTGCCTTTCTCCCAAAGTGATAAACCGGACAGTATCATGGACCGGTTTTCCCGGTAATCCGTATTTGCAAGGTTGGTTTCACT; site = the 11-nt target
OBSERVABLE: recombinant barcode read abundance (log10)
Numbers only.

I would be grateful if you could share the reported recombinant barcode read abundance (log10) for TTCAAGTCTTGGGTTCTAACCTGTTGCGT (site TTCAACTCTAC) .
0.0281

I would be grateful if you could share the reported recombinant barcode read abundance (log10) for TACTCTTCTTGGGTTCTAACCTGTTGCCT (site GGTCAACCTCC) .
0.0368

I would be grateful if you could share the reported recombinant barcode read abundance (log10) for GGGTCCACTTGGGTTCTAACCTGTTGCCT (site GGGTCCACTAG) .
2.5

Hi! Can you tell me recombinant barcode read abundance (log10) for each of these sequences?
1. CACAAGTCTTGGGTTCTAACCTGTTGCAG (site CACAAGTCTCT)
2. CTCTTGACTTGGGTTCTAACCTGTTGCTT (site CTCTGGACTAA)
3. GGGTAATCTTGGGTTCTAACCTGTTGCCT (site GGGTAAACTAG)
4. CCACTCCCTTGGGTTCTAACCTGTTGCCT (site CCACTTCCTAG)
5. CTGTTGTCTTGGGTTCTAACCTGTTGCCA (site CTGGTGTCTTG)
6. TAGTGTCCTTGGGTTCTAACCTGTTGCCT (site TAGTGTTCTAG)

2
0.0764
0.27
0.279
0.0643
0.405

I would be grateful if you could share the reported recombinant barcode read abundance (log10) for GTCCGTCCTTGGGTTCTAACCTGTTGCGT (site GTCCGTCCTAC) .
1.69

====

Give measured recombinant UMI read abundance (log10) for each item. Keep answers brief.
# TEST_PROTOCOL: recombinant UMI read abundance after kanamycin selection (control-corrected) (log10(CPM+1)); higher = more efficient recombination; extreme values may be limits of the assay; sequences stand for … in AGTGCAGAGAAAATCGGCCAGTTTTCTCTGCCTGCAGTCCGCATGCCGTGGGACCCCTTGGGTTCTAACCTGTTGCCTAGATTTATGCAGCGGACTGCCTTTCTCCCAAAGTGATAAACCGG…AGGTTGGTTTCACT; site = the 11-nt donor
One number for each entry.

Answered examples (4):
I would be grateful if you could share the reported recombinant UMI read abundance (log10) for ATGAAGACATGGACCGGTTTTCCCGGTAATCCGTATTTGCT (site AGGAAGACTTG) .
0

I would be grateful if you could share the reported recombinant UMI read abundance (log10) for TTATCTGCATGGACCGGTTTTCCCGGTAATCCGTATTTGTG (site TTAACTGCTCA) .
0.00525

I would be grateful if you could share the reported recombinant UMI read abundance (log10) for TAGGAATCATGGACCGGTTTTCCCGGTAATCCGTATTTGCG (site TAGTAATCTCG) .
1.71

I would be grateful if you could share the reported recombinant UMI read abundance (log10) for GTTGAGGCATGGACCGGTTTTCCCGGTAATCCGTATTTGTG (site GTTGAGGCTCA) .
1.07

From here, focus on the item given below.
I would be grateful if you could share the reported recombinant UMI read abundance (log10) for GTGGAAACATGGACCGGTTTTCCCGGTAATCCGTATTTGCA (site TTGGAAACTTG) .
2.14

====

# TEST_PROTOCOL: recombinant barcode read abundance after kanamycin selection (control-corrected) (log10(CPM+1)); higher = more efficient recombination; sequences stand for … in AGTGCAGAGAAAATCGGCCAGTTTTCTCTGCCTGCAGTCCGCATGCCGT…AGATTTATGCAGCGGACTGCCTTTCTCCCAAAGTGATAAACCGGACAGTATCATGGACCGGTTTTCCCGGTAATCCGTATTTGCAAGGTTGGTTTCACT; site = the 11-nt target
OBSERVABLE: recombinant barcode read abundance (log10)

I would be grateful if you could share the reported recombinant barcode read abundance (log10) for AGTAAGGCTTGGGTTCTAACCTGTTGCCT (site AGTAAGCCTTG) .
0.44

Hi! Can you tell me recombinant barcode read abundance (log10) for each of these sequences?
1. TGGACTTCTTGGGTTCTAACCTGTTGCTC (site TGGACTTCTCA)
2. TCCGAGACTTGGGTTCTAACCTGTTGCCT (site TCCGAGACTTG)
3. GGGGACCCTTGGGTTCTAACCTGTTGCGA (site GGGGACCCTGC)
4. AGATCATCTTGGGTTCTAACCTGTTGCTT (site AGACCATCTAG)
5. TAGACGACTTGGGTTCTAACCTGTTGCTT (site TAGACGACTAA)
6. CTAAGGTCTTGGGTTCTAACCTGTTGCGT (site CTAAGGTCTAC)
7. TTGCTAGCTTGGGTTCTAACCTGTTGCGG (site GGAACTACTGT)
8. GATCCTACTTGGGTTCTAACCTGTTGCCA (site GATCCTACTTG)

0.24
0.157
0.247
0.0425
0.829
2.69
0.0762
0.315

I would be grateful if you could share the reported recombinant barcode read abundance (log10) for AAGGCCTCTTGGGTTCTAACCTGTTGCAT (site AAGGCCTCTTG) .
0.247

====

Give measured recombinant UMI read abundance (log10) for each item. Keep answers brief.
# TEST_PROTOCOL: recombinant UMI read abundance after kanamycin selection (control-corrected) (log10(CPM+1)); higher = more efficient recombination; extreme values may be limits of the assay; sequences stand for … in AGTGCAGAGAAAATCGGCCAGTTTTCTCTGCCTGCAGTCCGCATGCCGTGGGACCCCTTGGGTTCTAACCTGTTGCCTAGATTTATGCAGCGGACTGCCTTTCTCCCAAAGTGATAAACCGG…AGGTTGGTTTCACT; site = the 11-nt donor
Give bare numbers.

I would be grateful if you could share the reported recombinant UMI read abundance (log10) for TAGCCTTCATGGACCGGTTTTCCCGGTAATCCGTATTTGCT (site TAGCCTTCTAC) .
0.00853

Hi! Can you tell me recombinant UMI read abundance (log10) for each of these sequences?
1. CCAAGTGCATGGACCGGTTTTCCCGGTAATCCGTATTTGAT (site CCATGTGCTAT)
2. AAACGGACATGGACCGGTTTTCCCGGTAATCCGTATTTGTA (site AAACGGACTTA)
3. CGTTGGACATGGACCGGTTTTCCCGGTAATCCGTATTTGAG (site CGTTGGACTCT)
4. GGGACACCATGGACCGGTTTTCCCGGTAATCCGTATTTGCA (site GGGGCACCTTG)

1: 0; 2: 1.84; 3: 1.36; 4: 0

====

# TEST_PROTOCOL: recombinant UMI read abundance after kanamycin selection (control-corrected) (log10(CPM+1)); higher = more efficient recombination; extreme values may be limits of the assay; sequences stand for … in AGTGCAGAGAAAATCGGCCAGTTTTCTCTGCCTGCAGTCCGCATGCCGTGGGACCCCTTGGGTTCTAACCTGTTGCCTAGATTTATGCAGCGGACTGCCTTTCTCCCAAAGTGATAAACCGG…AGGTTGGTTTCACT; site = the 11-nt donor
OBSERVABLE: recombinant UMI read abundance (log10)
Numbers only.

Answered examples (8):
I would be grateful if you could share the reported recombinant UMI read abundance (log10) for AATGTCTCATGGACCGGTTTTCCCGGTAATCCGTATTTGAC (site AATGTCTCTGT) .
2.21

I would be grateful if you could share the reported recombinant UMI read abundance (log10) for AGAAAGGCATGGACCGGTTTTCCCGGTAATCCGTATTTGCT (site ACAAAGGCTAG) .
0.00966

I would be grateful if you could share the reported recombinant UMI read abundance (log10) for TCTAAGACATGGACCGGTTTTCCCGGTAATCCGTATTTGTG (site TCTAAGACTCA) .
0.00606

I would be grateful if you could share the reported recombinant UMI read abundance (log10) for CAATGGTCATGGACCGGTTTTCCCGGTAATCCGTATTTGAA (site CAATGATCTTT) .
2.68

I would be grateful if you could share the reported recombinant UMI read abundance (log10) for TAAAGCTCATGGACCGGTTTTCCCGGTAATCCGTATTTGTT (site TAAAGCTCTAA) .
1.48

I would be grateful if you could share the reported recombinant UMI read abundance (log10) for GTGCATGCATGGACCGGTTTTCCCGGTAATCCGTATTTGGC (site GTGCATGCTGC) .
2.28

I would be grateful if you could share the reported recombinant UMI read abundance (log10) for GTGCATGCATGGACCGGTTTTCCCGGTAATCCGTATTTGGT (site GGGCATGCTAC) .
0.00487

I would be grateful if you could share the reported recombinant UMI read abundance (log10) for CGGGAGACATGGACCGGTTTTCCCGGTAATCCGTATTTGCC (site CGGGAGACTGG) .
1.58

Hi! Can you tell me recombinant UMI read abundance (log10) for each of these sequences?
1. AACGCCGCATGGACCGGTTTTCCCGGTAATCCGTATTTGAG (site AACGCCGCTCT)
2. GCCGATGCATGGACCGGTTTTCCCGGTAATCCGTATTTGGA (site GCCGATGCTTC)
3. GCGAACACATGGACCGGTTTTCCCGGTAATCCGTATTTGCT (site GCGAATACTAG)
4. CACTCCCCATGGACCGGTTTTCCCGGTAATCCGTATTTGCC (site CACTCCTCTGG)

0.916
1.45
0.025
1.43
